Molecular target: Recombinant (1-346) HPK1 (h) (Homo sapiens)
Construct: Recombinant (1-346) HPK1 (h) is incubated with 8 mM MOPS pH 7.0
Assay: HPK1 human STE kinase enzymatic radiometric assay
Type: biochemical
Conditions: read-out: HPK1 IC50 nM Range
Measured IC50 of individual entries

# count of solved cases: 5
smiles_text=CN1CCN(c2ccc(-c3nc(-c4ccc5c(c4)CCNC5=O)c(N)nc3F)cc2)CC1 result="0.1 to 10 nM"
smiles_text=CO[C@@H]1CCN(Cc2cc(-c3nc(-c4cc(F)c5c(c4)CCNC5=O)c(N)nc3F)ccc2N2CCOCC2)C1 result="0.1 to 10 nM"
smiles_text=CN(C)Cc1cc(-c2nc(-c3ccc4c(c3)C3(CC3)CNC4=O)c(N)nc2F)ccc1C1CCOCC1 result="0.1 to 10 nM"
smiles_text=C[C@@H]1CN(c2ccc(-c3nc(-c4cc(F)c5c(c4)CCNC5=O)c(N)nc3F)cc2CN(C)C)CCO1 result="0.1 to 10 nM"
smiles_text=Cc1nc2cc(-c3nc(-c4ccc(N5C[C@@H](C)N(C)[C@@H](C)C5)cc4)c(F)nc3N)ccc2c(=O)[nH]1 result="11 to 100 nM"

Data request: Which IC50 is reported for this compound? `Nc1nc(F)c(-c2ccc(C3CCOCC3)c([C@@H]3CCCN3)c2)nc1-c1ccc2c(c1)CCNC2=O`
Data returned: 0.1 to 10 nM

Data request: Which IC50 is reported for this compound? `CC(C)N1CCN(c2ccc(-c3nc(-c4cc5c(cc4F)C(=O)NCC5)c(N)nc3Cl)cc2)CC1`
Data returned: 11 to 100 nM

* * *

Target: Recombinant (1-346) HPK1 (h) (Homo sapiens, UniProt Q92918)
Construct: Recombinant (1-346) HPK1 (h) is incubated with 8 mM MOPS pH 7.0
Assay: HPK1 human STE kinase enzymatic radiometric assay
Assay type: biochemical
Details: read-out: HPK1 IC50 nM Range
Measured IC50 of individual entries

molecule="CO[C@H]1CCN(Cc2cc(-c3nc(-c4cc(F)c5c(c4)CCNC5=O)c(N)nc3F)ccc2N2CCOCC2)C1 [Example I-158]" measure_name=IC50 result="0.1 to 10 nM"
molecule="Nc1nc(F)c(-c2ccc(N3CCN(CCCC(F)F)CC3)cc2)nc1-c1ccc2c(=O)[nH]ccc2c1 [Example I-70]" measure_name=IC50 result="0.1 to 10 nM"
molecule="Nc1nc(F)c(-c2ccc(N3CCN(C4CCC4)CC3)cc2)nc1-c1cc2c(cc1F)C(=O)NCC2 [Example I-48]" measure_name=IC50 result="0.1 to 10 nM"
molecule="CN(C)[C@@H]1COc2ccc(-c3nc(-c4ccc5c(c4)C(F)(F)CNC5=O)c(N)nc3F)cc21 [Example I-256]" measure_name=IC50 result="0.1 to 10 nM"

Data request: Which IC50 is reported for this molecule? C[C@H]1CN(c2ccc(-c3nc(-c4cc5c(cc4F)C(=O)NCC5)c(N)nc3F)cc2CN2CCC2)CCO1 [Example I-215]
Data returned: 0.1 to 10 nM

* * *

Measured IC50 of individual entries
Target: Recombinant (1-346) HPK1 (h) (Homo sapiens)
Construct: Recombinant (1-346) HPK1 (h) is incubated with 8 mM MOPS pH 7.0
Sequence (Q92918 1-346): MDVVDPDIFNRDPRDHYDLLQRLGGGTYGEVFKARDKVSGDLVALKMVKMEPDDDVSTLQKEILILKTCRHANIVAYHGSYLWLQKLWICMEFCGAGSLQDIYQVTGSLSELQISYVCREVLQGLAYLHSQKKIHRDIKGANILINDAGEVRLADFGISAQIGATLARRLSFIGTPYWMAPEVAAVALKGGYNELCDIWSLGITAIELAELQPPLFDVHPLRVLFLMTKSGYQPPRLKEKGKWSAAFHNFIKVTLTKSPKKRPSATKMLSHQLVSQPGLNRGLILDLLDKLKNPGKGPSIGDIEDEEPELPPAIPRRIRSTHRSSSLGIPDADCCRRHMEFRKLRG
Assay: HPK1 human STE kinase enzymatic radiometric assay
Format: biochemical
Details: read-out: HPK1 IC50 nM Range

smiles_text=Nc1nc(F)c(-c2ccc(C3CCOCC3)c(CN3CCCC3)c2)nc1-c1ccc2c(c1)CCNC2=O result="0.1 to 10 nM"
smiles_text=Nc1nc(F)c(-c2ccc(N3CCOCC3)cc2)nc1-c1cc(F)c2c(=O)[nH]ccc2c1 result="0.1 to 10 nM"

Now look at this entry.
Data request: Which IC50 is reported for this compound? `CC(C)N1CCN(c2ccc(-c3nc(-c4ccc5c(=O)[nH]cnc5c4)c(N)nc3F)cc2)CC1`
Data returned: 0.1 to 10 nM

* * *

Target: Recombinant (1-346) HPK1 (h) (Homo sapiens, UniProt Q92918)
Construct: Recombinant (1-346) HPK1 (h) is incubated with 8 mM MOPS pH 7.0
Experiment: HPK1 human STE kinase enzymatic radiometric assay
Format: biochemical
Details: read-out: HPK1 IC50 nM Range
Measured IC50 of individual entries

molecule="CCN(C)Cc1cc(-c2nc(-c3ccc4c(=O)[nH]cc(F)c4c3)c(N)nc2F)cc(C)c1OC [Example I-298]" result="11 to 100 nM"
molecule="Nc1nc(F)c(-c2ccc(N3CCN(CC4CC4)CC3)cc2)nc1-c1cc(F)c2c(=O)[nH]ccc2c1 [Example I-24]" result="0.1 to 10 nM"
molecule="CC(C)N1CCN(c2ccc(-c3nc(-c4cc5c(cc4F)C(=O)NCC5)c(N)nc3F)cc2)CC1 [Example I-2]" result="0.1 to 10 nM"
molecule="CO[C@@H]1CCN(Cc2cc(-c3nc(-c4ccc5c(c4)CCNC5=O)c(N)nc3F)ccc2N2CCOCC2)C1 [Example I-151]" result="0.1 to 10 nM"
molecule="CN(C)Cc1cc(-c2nc(-c3cc4c(F)c[nH]c(=O)c4cc3F)c(N)nc2F)ccc1N1CCOCC1 [Example I-142]" result="0.1 to 10 nM"

Data request: What value of IC50 on Recombinant (1-346) HPK1 (h) (Homo sapiens, UniProt Q92918) does CN1CC2(CCN(c3ccc(-c4nc(-c5cc6c(cc5F)C(=O)NCC6)c(N)nc4F)cc3)CC2)C1 [Example I-61] have?
Data returned: 0.1 to 10 nM

Data request: What value of IC50 on Recombinant (1-346) HPK1 (h) (Homo sapiens, UniProt Q92918) does CN(C)Cc1cc(-c2nc(-c3cc(F)c4c(c3)CCNC4=O)c(N)nc2F)ccc1N1CCOCC1 [Example I-88] have?
Data returned: 11 to 100 nM

* * *

Target: Recombinant (1-346) HPK1 (h) (Homo sapiens)
Construct: Recombinant (1-346) HPK1 (h) is incubated with 8 mM MOPS pH 7.0
Experiment: HPK1 human STE kinase enzymatic radiometric assay
Format: biochemical
Conditions: read-out: HPK1 IC50 nM Range
Measured IC50 of individual entries

# count of solved cases: 2
compound="COC1CCN(Cc2cc(-c3nc(-c4cc5c(cc4F)C(=O)NCC5)c(N)nc3F)ccc2N2CCOCC2)C1 (stereo not drawn) [Example I-134]" experimental_system="Recombinant (1-346) HPK1 (h) (Homo sapiens)" result="0.1 to 10 nM"
compound="Nc1nc(F)c(-c2ccc(N3CCOCC3)c(CN3CCC3)c2F)nc1-c1cc2c(cc1F)C(=O)NCC2 [Example I-244]" experimental_system="Recombinant (1-346) HPK1 (h) (Homo sapiens)" result="11 to 100 nM"

Now look at this entry.
Data request: Which IC50 is reported for this compound? Cc1nc2cc(-c3nc(-c4ccc(N5CCN(CC6CC6)CC5)cc4)c(F)nc3N)ccc2c(=O)[nH]1 [Example I-79]
Data returned: 101 to 1000 nM

* * *

Measured IC50 of individual entries
Molecular target: Recombinant (1-346) HPK1 (h) (Homo sapiens, UniProt Q92918)
Construct: Recombinant (1-346) HPK1 (h) is incubated with 8 mM MOPS pH 7.0
Test: HPK1 human STE kinase enzymatic radiometric assay
Assay type: biochemical
Details: read-out: HPK1 IC50 nM Range

# count of solved cases: 4
molecule=CC(C)N1C[C@@H]2C[C@]2(c2ccc(-c3nc(-c4cc5c(cc4F)C(=O)NCC5)c(N)nc3F)cc2)C1 result="0.1 to 10 nM"
molecule=Cc1c[nH]c(=O)c2ccc(-c3nc(-c4cnc(N5CCOCC5)c(CN(C)C)c4)c(F)nc3N)cc12 result="11 to 100 nM"
molecule=Nc1nc(F)c(-c2ccc([C@]34C[C@H]3CN(C3CCC3)C4)cc2)nc1-c1ccc2c(=O)[nH]cc(F)c2c1 result="0.1 to 10 nM"
molecule=CN(C)Cc1cc(-c2nc(-c3ccc4c(=O)[nH]cc(F)c4c3)c(N)nc2F)ccc1OC(F)F result="0.1 to 10 nM"

Data request: Which IC50 is reported for this molecule? `Cc1c[nH]c(=O)c2ccc(-c3nc(-c4ccc(N5CCOCC5)c(CN(C)C)c4)c(F)nc3N)cc12`
Data returned: 0.1 to 10 nM

Data request: Which IC50 is reported for this molecule? `Cc1[nH]c(=O)c2c(F)cc(-c3nc(-c4ccc(C5CCOCC5)c(CN(C)C)c4)c(F)nc3N)cc2c1F`
Data returned: 0.1 to 10 nM
